Experiment: Lipid nanoparticle size and polydispersity by dynamic light scattering
Type: physicochemical
Conditions: LNP of lipid/DSPC/cholesterol/PEG-lipid 50:10:38.5:1.5 encapsulating hEPO mRNA
Could you please report measured polydispersity for the items listed next?

input: Request the reported polydispersity associated with CCCCCCCCC(CCCCCC)CNC(=O)CCCCCCN(CCO)CCN(CCCCC(COC(=O)CCCCCCC)COC(=O)CCCCCCC)C1CCCCC1 (stereo not drawn)
output: 0.036

input: Quick one: CCCCCCCCC(CCCCCC)CNC(=O)CCCCCCN(CCO)CCN(CCCCC(COC(=O)CCCCCCC)COC(=O)CCCCCCC)C1CCCCCC1 (stereo not drawn)
output: 0.031

input: Quick one: CCCCCCCCC(CCCCCC)CNC(=O)CCCCCCCN(CCO)CCN(CCCCC(COC(=O)CCCCCCC)COC(=O)CCCCCCC)C1CCCCC1 (stereo not drawn)
output: 0.093

input: Quick one: CCCCCCCCCCCOC(=O)CCCCCN(CCN(CCO)CCCCCC(=O)OCC(CCCCCCCC)CCCCCCCC)C1CCCCCC1
output: 0.121

input: Quick one: CCCCCCCCCCCOC(=O)CCOCCN(CCN(CCO)CCOCCC(=O)OCC(CCCCCCCC)CCCCCCCC)C1CCC1
output: 0.102

input: Quick one: CCCCCCCCC(CCCCCCCC)COC(=O)CCCCCN(CCO)CCN(CCCCCC(=O)OCC(CCCCCCCC)CCCCCCCC)C1CCC(C)CC1 (stereo not drawn)
output: 0.03

----------
Test: Apparent pKa of LNP formulations, TNS fluorescence assay
Type: physicochemical
Settings: LNP cationic lipid/DSPC/cholesterol/DMG-PEG 50/10/38.5/1.5 mol %
Could you please report measured Apparent Pka for the items listed next?
Answer using only a numeral; do not append any unit.

input: Request the reported Apparent Pka associated with CCCCCCCCC(CCCCCC)CNC(=O)CCCCN(CCO)CCN(CCCCC(COC(=O)CCCCCCC)COC(=O)CCCCCCC)C1CCCCCCC1 (stereo not drawn)
output: 6.789

input: Quick one: CCCCCCCCC(CCCCCCCC)COC(=O)CCOCCN(CCO)CCN(CCOCCC(=O)OCC(CCCCCCCC)CCCCCCCC)C1CCCCC1
output: 6.364

input: Quick one: CCCCCCCCC(CCCCCCCC)COC(=O)/C=C/CN(CCO)CCN(CCCCCC(=O)OCC(CCCCCCCC)CCCCCCCC)C1CCC1
output: 6.147

----------
Could you please report measured size (nm) for the items listed next?
Assay: Lipid nanoparticle size and polydispersity by dynamic light scattering
Format: physicochemical
Settings: LNP of lipid/DSPC/cholesterol/PEG-lipid 50:10:38.5:1.5 encapsulating hEPO mRNA
Quick note: give the figure in nm, leave out the unit.

input: Request the reported size (nm) associated with CCCCCCCCC(CCCCCCCC)COC(=O)CCCCCN(CCO)CCCCN(CCCCCC(=O)OCC(CCCCCCCC)CCCCCCCC)C1CCC1
output: 86.61

input: Quick one: CCCCCCCCC(CCCCCCCC)CC(=O)NCCCCCN(CCN(CCO)CCCCCOC(=O)CC(CCCCCCCC)CCCCCCCC)C1CCC1
output: 66.08

input: Quick one: CCCCCCCCC(CCCCCCCC)CNC(=O)CCCCCN(CCO)CCN(CCCCCC(=O)OCC(CCCCCCCC)CCCCCCCC)C1CCCCC1
output: 57.5

input: Quick one: CCCCCCCCC(CCCCCCCC)COC(=O)CCCCCN(CCN(CCO)CCOCCC(=O)OCC(CCCCCCCC)CCCCCCCC)C1CCCCC1
output: 76.24

input: Quick one: CCCCCCCCC(CCCCCC)CNC(=O)CCCCCCN(CCO)CCN(CCCCC(COC(=O)CCCCCCC)COC(=O)CCCCCCC)C1CCCCCCC1 (stereo not drawn)
output: 76.91

input: Quick one: CCCCCCCCCCCC(=O)OCCCCCN(CCN(CCO)CCCCCOC(=O)CC(CCCCCCCC)CCCCCCCC)C1CCCC1
output: 76.12
